Molecular target: T1, human adenosine A2A receptor (A2aR) (human, UniProt P29274 1-412)
T1 construct: Assays used HEK293 cells stably overexpressing human A2aR (BPS Bioscience 79381), human A2aR-expressing CHO cells, or endogenous A2aR on human PBMC; also called human A2aR; hA2aR
T1 sequence (P29274 whole entry): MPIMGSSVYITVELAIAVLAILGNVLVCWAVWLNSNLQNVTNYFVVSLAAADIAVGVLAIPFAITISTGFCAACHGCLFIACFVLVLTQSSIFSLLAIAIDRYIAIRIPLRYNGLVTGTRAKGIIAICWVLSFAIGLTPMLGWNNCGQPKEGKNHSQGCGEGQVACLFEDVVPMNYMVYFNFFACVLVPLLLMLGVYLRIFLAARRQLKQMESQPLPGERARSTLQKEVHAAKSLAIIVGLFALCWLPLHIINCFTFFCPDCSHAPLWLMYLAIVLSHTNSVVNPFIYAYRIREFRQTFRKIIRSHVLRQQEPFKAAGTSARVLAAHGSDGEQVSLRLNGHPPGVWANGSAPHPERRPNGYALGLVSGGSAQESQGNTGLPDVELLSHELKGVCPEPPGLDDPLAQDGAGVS
Test: flow cytometry, HEK293-hA2aR cells, supernatant 1 ug/ml
For each entry below, report its MFI value.
Report the figure in MFI without appending any unit label.

Form field: reported MFI of Hu3F8-H4/Hu3F8-L5 (antibody, human IgG1, V domains shown, Human IgG1 FES (L234F, L235E, P331S) and human Ig kappa constant domains; also called Hu3F8 VH4/VL5) VH: EVQLVQSGAEVKKPGASVKVSCKASGFTFTRYWMNWVRQAPGQGLEWIGRIDPSDSETHYNHKFWGRATLTVDKSTSTVYMELSSLRSEDTAVYYCLRSLYGKGDYWGQGTTVTVSS VL: DVVMTQSPLSLPVTPGEPASISCRSSQSIVHSNGNTYLEWYLQKPGQSPQLLIYKVSNRFSGVPDRFSGSGSGTDFTLKISRVEAEDVGVYYCYQGSHVPLTFGGGTKVEIK
1890

Form field: reported MFI of Hu3F8-H6/Hu3F8-L4 (antibody, human IgG1, V domains shown, Human IgG1 FES (L234F, L235E, P331S) and human Ig kappa constant domains) VH: EVQLVQSGAEVKKPGESLRISCKASGFTFTRYWMNWVRQMPGKGLEWIGRIDPSDSETHYNHKFWGHATLSVDKSSSTVYLQWSSLKASDTAMYYCLRSLYGKGDYWGQGTTVTVSS VL: DIVMTQSPLSLPVTPGEPASISCRSSQSIVHSNGNTYLEWYLQKPGQSPQLLIYKVSNRFSGVPDRFSGSGSGTDFTLKISRVEAEDVGVYYCYQGSHVPLTFGGGTKVEIK
1880
